# measurement protocol: Cell viability assay (CellTiter-Glo), HEK293
# Assay type: cell-based
# particulars: human, HEK293 cells, 3 days of incubation
Give measured CC50 at 3 days for each item. Keep answers brief.

QUERY: CC50 at 3 days lookup needed for COc1cccc(CN(C(=O)c2cc(-c3cc(F)c(F)cc3C(=O)N3Cc4ccccc4C[C@H]3CN3CCOCC3)n(C)c2C)c2ccc(O)cc2)c1C , thanks.
RESULT: > 25 µM

QUERY: CC50 at 3 days lookup needed for COc1cc(C(=O)N2Cc3ccccc3C[C@H]2CN2CCOCC2)c(-c2cc(C(=O)N(Cc3cccc(OC)c3C)c3ccc(O)cc3)c(C)n2C)cc1F , thanks.
RESULT: > 25 µM

QUERY: CC50 at 3 days lookup needed for Cc1c(C(=O)N(Cc2ccccc2C#N)c2ccc(O)cc2)cc(-c2cc(Cl)ccc2C(=O)N2Cc3ccccc3C[C@H]2CN2CCOCC2)n1C , thanks.
RESULT: 10 to 25 µM

QUERY: CC50 at 3 days lookup needed for COc1cccc(CN(C(=O)c2cc(-c3cc([N+](=O)[O-])ccc3C(=O)N3Cc4ccccc4C[C@H]3CN3CCOCC3)n(C)c2C)c2ccc(O)cc2)c1C , thanks.
RESULT: > 25 µM

QUERY: CC50 at 3 days lookup needed for COc1ccccc1CN(C(=O)c1cc(-c2cc(Cl)ccc2C(=O)N2Cc3ccccc3C[C@H]2CN2CCOCC2)n(C)c1C)c1ccc2[nH]ncc2c1 , thanks.
RESULT: > 25 µM

QUERY: CC50 at 3 days lookup needed for COc1cc(C(=O)N2Cc3ccccc3C[C@H]2CN2CCOCC2)c(-c2cc(C(=O)N(Cc3cccc(OC)c3C)c3ccc(O)cc3)c(C)n2C)cc1Cl , thanks.
RESULT: > 25 µM
